Field: % LBF Human. Provide a value for each of the compounds that follow.
# Measurement Description: Intrinsic clearance (CLint) assay, human liver microsomes
# Format: in vitro ADME
# Particulars: liver blood flow
# Protocol: Pooled mouse and human liver microsomes are purchased from Xenotech. […] Control incubation is included for each compound tested where 0.1 M phosphate buffer pH 7.4 is added instead of NADPH (minus NADPH). […] Quantitative analysis: following protein precipitation, the samples were analyzed using specific LC-MS/MS conditions. Data analysis: from a plot of ln peak area ratio (compound peak area/internal standard peak area) against time, the gradient of the line was determined. […]
Non-standard residues stand in square brackets, D forms with d. Residues, ends and D or L forms follow the SMILES beside them. dOrn = NCCC[C@@H](N)C(=O)O
Answer format: numeric, % implied, no suffix.

Task: Any idea what % LBF Human was measured for CC[C@H](C)[C@@H]1NC(=O)[C@H]([C@@H](C)CC)NC(=O)[C@@H](CC(C)C)NC(=O)[C@H](CC(C)C)NC(=O)[C@H](Cc2c[nH]c3ccccc23)NC(=O)[C@@H](CCCN)NC1=O [Compound 12c] (cyclo(II[dOrn]WL[dL])) ?
Output: 88.98

Task: Next record, please: CC(C)C[C@@H]1NC(=O)[C@H](Cc2c[nH]c3ccccc23)NC(=O)[C@@H](CCCN)NC(=O)[C@H](CC(N)=O)NC(=O)[C@H](C(C)C)NC(=O)[C@@H](C)NC1=O [Compound 6c] (cyclo(L[dA]VN[dOrn]W))
Output: 49.94

====

# Test Target: human serum albumin (Homo sapiens)
# Sequence (P02768 25-609): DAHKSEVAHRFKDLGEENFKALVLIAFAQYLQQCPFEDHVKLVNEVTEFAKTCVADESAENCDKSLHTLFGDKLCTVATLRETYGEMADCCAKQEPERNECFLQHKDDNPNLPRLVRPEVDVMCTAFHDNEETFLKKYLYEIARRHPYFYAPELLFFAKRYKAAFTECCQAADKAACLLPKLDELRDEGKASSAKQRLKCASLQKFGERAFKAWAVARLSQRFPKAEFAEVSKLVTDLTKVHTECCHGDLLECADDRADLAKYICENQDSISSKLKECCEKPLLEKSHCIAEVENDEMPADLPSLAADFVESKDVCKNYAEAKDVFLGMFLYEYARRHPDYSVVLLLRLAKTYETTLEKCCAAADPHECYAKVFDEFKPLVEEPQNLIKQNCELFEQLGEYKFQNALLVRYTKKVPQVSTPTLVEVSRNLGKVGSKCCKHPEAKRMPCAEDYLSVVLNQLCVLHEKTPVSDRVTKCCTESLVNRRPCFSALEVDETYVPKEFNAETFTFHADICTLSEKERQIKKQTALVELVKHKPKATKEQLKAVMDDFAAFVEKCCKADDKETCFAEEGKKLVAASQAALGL
# Measurement Description: Human serum albumin (HSA) binding assay
# Assay type: in vitro ADME
# Particulars: human serum albumin binding
Non-standard residues stand in square brackets, D forms with d. Residues, ends and D or L forms follow the SMILES beside them. dPhe(4-Cl) = N[C@H](Cc1ccc(Cl)cc1)C(=O)O; dOrn = NCCC[C@@H](N)C(=O)O
Field: % HSA. Provide a value for each of the compounds that follow.
Answer format: numeric, % implied, no suffix.

Task: Any idea what % HSA was measured for CC[C@H](C)[C@@H]1NC(=O)[C@@H](CC(C)C)NC(=O)[C@H](CC(C)C)NC(=O)[C@H](Cc2c[nH]c3ccccc23)NC(=O)[C@@H](CCCN)NC(=O)[C@H](CO)NC1=O [Compound 10c] (cyclo(IS[dOrn]WL[dL])) ?
Output: 86.47

Task: Next record, please: CC[C@H](C)[C@@H]1NC(=O)[C@@H](Cc2ccc(Cl)cc2)NC(=O)[C@H](CC(C)C)NC(=O)[C@H](Cc2c[nH]c3ccccc23)NC(=O)[C@@H](CCCN)NC(=O)[C@@H](CCCN)NC1=O [Compound 18c] (cyclo(I[dOrn][dOrn]WL[dPhe(4-Cl)]))
Output: 98.70

Task: Next record, please: CC(C)C[C@H]1NC(=O)[C@H](C)NC(=O)[C@H](Cc2c[nH]c3ccccc23)NC(=O)[C@@H](CCCN)NC(=O)[C@H](CC(N)=O)NC(=O)[C@H](C(C)C)NC1=O [Compound 2c] (cyclo(A[dL]VN[dOrn]W))
Output: 43.14

Task: Next record, please: CC(C)C[C@@H]1NC(=O)[C@H](Cc2c[nH]c3ccccc23)NC(=O)[C@@H](CCCN)NC(=O)[C@@H](CCCN)NC(=O)[C@H](C(C)C)NC(=O)[C@@H](CC(C)C)NC1=O [Compound 9c] (cyclo(L[dL]V[dOrn][dOrn]W))
Output: 86.46

Task: Next record, please: CC[C@H](C)[C@@H]1NC(=O)[C@@H](CC(C)C)NC(=O)[C@H](CC(C)C)NC(=O)[C@H](Cc2c[nH]c3ccccc23)NC(=O)[C@@H](CCCN)NC(=O)[C@H](CC(N)=O)NC1=O [Compound 7c] (cyclo(IN[dOrn]WL[dL]))
Output: 76.35

Task: Next record, please: CC[C@H](C)[C@@H]1NC(=O)[C@H]([C@@H](C)CC)NC(=O)[C@@H](CC(C)C)NC(=O)[C@H](CC(C)C)NC(=O)[C@H](Cc2c[nH]c3ccccc23)NC(=O)[C@@H](CCCN)NC1=O [Compound 12c] (cyclo(II[dOrn]WL[dL]))
Output: 96.06

Task: Next record, please: CC(C)C[C@@H]1NC(=O)[C@H](Cc2c[nH]c3ccccc23)NC(=O)[C@@H](CCCN)NC(=O)[C@H](CC(N)=O)NC(=O)[C@H](C)NC(=O)[C@@H](CC(C)C)NC1=O [Compound 5c] (cyclo(AN[dOrn]WL[dL]))
Output: 56.76

Task: Next record, please: CC[C@H](C)[C@@H]1NC(=O)[C@H](CC(C)C)NC(=O)[C@H](Cc2c[nH]c3ccccc23)NC(=O)[C@@H](CCCN)NC(=O)[C@H](CC(N)=O)NC(=O)[C@H](C(C)C)NC1=O [Compound 20c] (cyclo(IVN[dOrn]WL))
Output: 83.67

====

Field: % LBF Human. Provide a value for each of the molecules that follow.
# Measurement Description: Intrinsic clearance (CLint) assay, human liver microsomes
# Assay type: in vitro ADME
# Particulars: liver blood flow
Non-standard residues stand in square brackets, D forms with d. Residues, ends and D or L forms follow the SMILES beside them. dPhe(4-Cl) = N[C@H](Cc1ccc(Cl)cc1)C(=O)O; NMeL = CN[C@@H](CC(C)C)C(=O)O; NMeV = CN[C@H](C(=O)O)C(C)C; dOrn = NCCC[C@@H](N)C(=O)O

Task: Any idea what % LBF Human was measured for CC(C)C[C@H]1NC(=O)[C@H](CC(C)C)N(C)C(=O)[C@H](Cc2c[nH]c3ccccc23)NC(=O)[C@@H](CCCN)NC(=O)[C@H](CC(N)=O)NC(=O)[C@H](C(C)C)N(C)C1=O [Compound 24c] (cyclo(N[dOrn]W[NMeL][dL][NMeV])) ?
Output: 82.70%

Task: Next record, please: CC(C)C[C@@H]1NC(=O)[C@@H](Cc2ccc(Cl)cc2)NC(=O)[C@@H](CCCN)NC(=O)[C@H](CC(N)=O)NC(=O)[C@H](C(C)C)NC(=O)[C@@H](CC(C)C)NC1=O [Compound 14c] (cyclo(L[dL]VN[dOrn][dPhe(4-Cl)]))
Output: <35.08%

====

Field: CLpred Mouse. Provide a value for each of the compounds that follow.
# Measurement Description: Intrinsic clearance (CLint) assay, mouse liver microsomes
# Type: in vitro ADME
# Particulars: predicted metabolic clearance
Non-standard residues stand in square brackets, D forms with d. Residues, ends and D or L forms follow the SMILES beside them. NMeN = CN[C@@H](CC(N)=O)C(=O)O; dNMeL = CN[C@H](CC(C)C)C(=O)O; dOrn = NCCC[C@@H](N)C(=O)O

Task: Any idea what CLpred Mouse was measured for CC[C@H](C)[C@@H]1NC(=O)[C@@H](CC(C)C)NC(=O)[C@H](CC(C)C)NC(=O)[C@H](Cc2c[nH]c3ccccc23)NC(=O)[C@@H](CCCN)NC(=O)[C@H](CO)NC1=O [Compound 10c] (cyclo(IS[dOrn]WL[dL])) ?
Output: <20.50 mL/min/kg

Task: Next record, please: CC(C)C[C@@H]1NC(=O)[C@H](Cc2c[nH]c3ccccc23)NC(=O)[C@@H](CCCN)NC(=O)[C@H](CC(N)=O)N(C)C(=O)[C@H](C(C)C)NC(=O)[C@@H](CC(C)C)N(C)C1=O [Compound 25c] (cyclo(L[dNMeL]V[NMeN][dOrn]W))
Output: <20.50 mL/min/kg

Task: Next record, please: CC(C)C[C@@H]1NC(=O)[C@H](Cc2c[nH]c3ccccc23)NC(=O)[C@@H](CCCN)NC(=O)[C@H](C)NC(=O)[C@H](C(C)C)NC(=O)[C@@H](CC(C)C)NC1=O [Compound 4c] (cyclo(A[dOrn]WL[dL]V))
Output: <20.50 mL/min/kg

====

# Measurement Description: Chrom logD assay
# Assay type: physicochemical
# Particulars: pH 7.4, Table 1; read-out: Log D pH = 7.4
Non-standard residues stand in square brackets, D forms with d. Residues, ends and D or L forms follow the SMILES beside them. dOrn = NCCC[C@@H](N)C(=O)O
Assay Metric: chromatographic logD
Write no unit; give the number alone.

Task: Any idea what chromatographic logD was measured for CC(C)C[C@@H]1NC(=O)[C@H](Cc2c[nH]c3ccccc23)NC(=O)[C@@H](CCCN)NC(=O)[C@H](CC(N)=O)NC(=O)[C@H](C(C)C)NC(=O)[C@@H](CC(C)C)NC1=O [Compound 1c, wollamide B] (cyclo([dOrn]WL[dL]VN)) ?
Output: 1.8

====

# Measurement Description: Intrinsic clearance (CLint) assay, mouse liver microsomes
# Type: in vitro ADME
# Particulars: predicted metabolic clearance
Non-standard residues stand in square brackets, D forms with d. Residues, ends and D or L forms follow the SMILES beside them. dPhe(4-Cl) = N[C@H](Cc1ccc(Cl)cc1)C(=O)O; NMeN = CN[C@@H](CC(N)=O)C(=O)O; NMeL = CN[C@@H](CC(C)C)C(=O)O; dOrn = NCCC[C@@H](N)C(=O)O
Field: CLpred Mouse. Provide a value for each of the molecules that follow.
Answer format: numeric, mL/min/kg implied, no suffix.

Task: Any idea what CLpred Mouse was measured for CC(C)C[C@H]1NC(=O)[C@H](CC(C)C)N(C)C(=O)[C@H](Cc2c[nH]c3ccccc23)NC(=O)[C@@H](CCCN)NC(=O)[C@H](CC(N)=O)N(C)C(=O)[C@H](C(C)C)NC1=O [Compound 23c] (cyclo([NMeL][dL]V[NMeN][dOrn]W)) ?
Output: 37.80

Task: Next record, please: CC(C)C[C@@H]1NC(=O)[C@H](Cc2c[nH]c3ccccc23)NC(=O)[C@@H](CCCN)NC(=O)[C@H](CC(N)=O)NC(=O)[C@H](C(C)C)NC(=O)[C@@H](Cc2ccc(Cl)cc2)NC1=O [Compound 16c] (cyclo(L[dPhe(4-Cl)]VN[dOrn]W))
Output: 24.21

Task: Next record, please: CC[C@H](C)[C@@H]1NC(=O)[C@@H](CC(C)C)NC(=O)[C@H](CC(C)C)NC(=O)[C@H](Cc2c[nH]c3ccccc23)NC(=O)[C@@H](CCCNC(=N)N)NC(=O)[C@H](CC(N)=O)NC1=O [Compound 13c] (cyclo(IN[dR]WL[dL]))
Output: 36.60

This collection of values is drawn from paper PMC5397059.
